Experiment: Systemic clearance and pharmacokinetics after i.v. dose in C57BL/6 mice aging 2 months
Type: in vivo, mouse
Conditions: male, C57BL/6, mouse, plasma, iv; i.v. 0.6 mg/kg; read-out: Vd ss
Kindly state Vd for each of the entries shown.
// units = L/kg; emit number, no label

So for COCCOCCn1c2ccccc2c2cc(/C=C/c3cc[n+](CCO)c4ccccc34)ccc21 [SLOH] , the logged Vd turned out to be 1.2

So for COCCOCCn1c2ccccc2c2cc(/C=C/c3cc[n+](C)c4ccccc34)ccc21.[I-] [SLM] , the logged Vd turned out to be 2.1

----------
Assay: Systemic clearance and pharmacokinetics after i.v. dose in C57BL/6 mice aging 2 months
Assay type: in vivo, mouse
Details: male, C57BL/6, mouse, plasma, iv; i.v. 2.0 mg/kg
VALUE TYPE: half-life (h)
// units = h; emit number, no label

So for COCCOCCn1c2ccccc2c2cc(/C=C/c3cc[n+](CCO)c4ccccc34)ccc21 , the logged half-life turned out to be 4.6

So for COCCOCCn1c2ccccc2c2cc(/C=C/c3cc[n+](C)c4ccccc34)ccc21.[I-] , the logged half-life turned out to be 7.1

Sourced from paper PMC5703966
